Test system: DeltatarO mutant
Test: S. aureus survival, RN4220 and DeltatarO strains – OD600, teichoic acid synthesis inhibitors, primary screen (AID 463173)
Conditions: S. aureus RN4220 wild type/DeltatarO growth, OD600, 18 h, hits give low values, screened at 18.75 µg/mL (by protocol)
Among all 52,000 compounds or so, about 4,300 (8.3%) were called active. The sample as a whole holds a higher share of actives than the screen did.
Please respond with Y when measured survival is strictly beneath 90%, and with N in all other cases.

Past entries and their recorded results:
• CCCNC(=O)c1cnc2sc(N3CCCCCC3)nn2c1=O = Y
• COc1ccccc1NC(=O)C1=C(C)NC(=S)NC1C (stereo unspecified) = Y
• CC1=C(C(=O)Nc2ccccc2C)C(c2ccccc2O)NC(=S)N1 (stereo unspecified) = N
• CCS(=O)(=O)c1ncc(Cl)c(C(=O)N(Cc2ccccc2)Cc2ccco2)n1 = Y
• COc1ccc(NC(=O)N2CCc3c(sc4c3CCCC4)C2c2ccc(F)cc2)cc1 (stereo unspecified) = N
• Cc1ccc(NC(=O)N2CCc3c(sc4c3CCCC4)C2c2ccccc2)cc1F (stereo unspecified) = N
• O=C(Nc1ccc(F)cc1F)N1CCc2c(sc3c2CCCC3)C1c1ccc(F)cc1 (stereo unspecified) = N
• COc1cc(NC(=O)N2CCc3c(sc4c3CCCC4)C2c2ccccc2)cc(OC)c1OC (stereo unspecified) = N
• O=C(O)c1ccccc1SC1CC(=O)N(Cc2ccccc2)C1=O (stereo unspecified) = Y
• Cc1ccccc1-c1nc(CNC(=O)NC2CCCCC2)c(C)o1 = Y

With those in mind, consider the next compound.
input: is_below(survival, 90%) for Cc1ccc(CN(Cc2ccco2)C(=O)c2ccc(Cl)cc2Cl)cc1 ?
output: Y

---

System: DeltatarO mutant
Assay: S. aureus survival, RN4220 and DeltatarO strains – OD600, teichoic acid synthesis inhibitors, primary screen (AID 463173)
Conditions: S. aureus RN4220 wild type/DeltatarO growth, OD600, 18 h, screened at 18.75 µg/mL (by protocol)
Out of some 52,000 compounds screened, about 4,300 (8.3%) were called active. Rule as the data show it: active = survival mostly below about 52% (no sharp cut-off); inactive = mostly above about 56%. For the sample, actives were picked, then their nearest neighbours and some compounds at random.
# output must be one of true (1) (active), false (0) (inactive)

* CC1CCc2c(sc3nnn(CC(=O)Nc4cccc(C(F)(F)F)c4)c(=O)c23)C1 (centres undefined) | false (0)
* COc1cc(NC(=O)CSc2nc(C)c(C(=O)Nc3ccccc3)c(-c3ccc(OC)c(OC)c3)c2C#N)c(OC)cc1Cl | false (0)
* CCCCCNC(=O)c1cc2c(=O)n3ccccc3nc2n1C | false (0)

input: State the result this test recorded for COc1ccc(CCNC(=O)c2cc3c(=O)n4ccccc4nc3n2C)cc1 .
output: false (0)

input: State the result this test recorded for Cc1ccc(-c2cc3ncc(C(=O)c4cc([N+](=O)[O-])ccc4O)cn3n2)cc1 .
output: true (1)

input: State the result this test recorded for Cc1ccc(/C=C/c2onc(C)c2S(=O)(=O)N2CCC(C(=O)N3CCN(c4cccc(C)c4)C(C)C3)CC2)cc1 (centres undefined) .
output: false (0)

---

System: DeltatarO mutant
Test: S. aureus survival, RN4220 and DeltatarO strains – OD600, teichoic acid synthesis inhibitors, primary screen (AID 463173)
Conditions: S. aureus RN4220 wild type/DeltatarO growth, OD600, 18 h, hits give low values, screened at 18.75 µg/mL (by protocol)
The whole screen tested about 52,000 compounds, of which about 4,300 (8.3%) were called active. The sample as a whole holds a higher share of actives than the screen did.
Please respond with true (1) when measured survival is strictly beneath 80%, and with false (0) in all other cases.

Past entries and their recorded results:
• CCc1ccc(S(=O)(=O)c2nnn3c2nc(N2CCOCC2)c2sccc23)cc1 = false (0)
• Cc1cccc(NC(=O)CSc2nc3ccccc3nc2N2CCCCC2)c1C = true (1)
• COc1ccc(NC(=O)CSc2nc3ccccc3nc2N2CCOCC2)c(OC)c1 = true (1)

input: is_below(survival, 80%) for Cc1cc(C)c(NC(=O)c2nc3ccccc3nc2N2CCCCC2)c(C)c1 ?
output: false (0)

input: is_below(survival, 80%) for COc1ccc(OC)c(NC(=O)CSc2nc3ccccc3nc2N2CCCCC2)c1 ?
output: true (1)

---

Tested on: DeltatarO mutant
Test: S. aureus survival, RN4220 and DeltatarO strains – OD600, teichoic acid synthesis inhibitors, primary screen (AID 463173)
Conditions: S. aureus RN4220 wild type/DeltatarO growth, OD600, 18 h, screened at 18.75 µg/mL (by protocol)
Screen size: about 52,000 compounds; about 4,300 (8.3%) were called active. No stated cut-off is given here; in the data, active means survival mostly below about 52% (no sharp cut-off); inactive means mostly above about 56%. The full list was thinned out, with actives kept by preference.
# output must be one of active, inactive

Past entries and their recorded results:
* CCOC(=O)C1=C(CN2CCCCC2)NC(=O)NC1c1ccc(OC)cc1 (stereo not given) | inactive
* COc1cc(NC(=O)c2cc(-c3ccc4c(c3)OCO4)on2)cc(OC)c1OC | inactive
* CC(NC(=O)CCn1c(=O)c2cccn2c2ccc(F)cc21)c1ccccc1 (stereo not given) | inactive
* COc1cccc(Nc2sc(C(=O)c3ccc(F)cc3)c(N)c2C(=O)NCc2ccc(C)cc2)c1 | inactive
* CC(CNC(=O)CCCn1c(=O)c2cccn2c2cccnc21)c1ccccc1 (stereo not given) | inactive
* COC(=O)c1ccc(Cn2nnc3c(=O)[nH]c(C4CCCN(S(=O)(=O)c5cccc(Cl)c5)C4)nc32)cc1 (stereo not given) | inactive
* CCOC(=O)c1ccc2c(c1)sc1nc(-c3ccc(OCC)cc3)cn12 | active
* Cc1ccc(CNC(=O)c2c(Nc3ccccc3C)sc(C(=O)c3ccc(F)cc3)c2N)cc1 | active
* CC(CNC(=O)CCn1c(=O)c2cccn2c2ccc(F)cc21)c1ccccc1 (stereo not given) | active
* CCOC(=O)C1CCN(C(=O)c2ccc3c(c2)sc2nc(-c4ccc(OCC)cc4)cn23)CC1 | inactive

With those in mind, consider the next compound.
input: State the result this test recorded for CCOC(=O)C1CCN(C(=O)c2ccc3c(c2)sc2nc(-c4ccc(OC)cc4)cn23)CC1 .
output: inactive

---

Test system: DeltatarO mutant
Assay: S. aureus survival, RN4220 and DeltatarO strains – OD600, teichoic acid synthesis inhibitors, primary screen (AID 463173)
Conditions: S. aureus RN4220 wild type/DeltatarO growth, OD600, 18 h, hits give low values, screened at 18.75 µg/mL (by protocol)
The whole screen tested about 52,000 compounds, of which about 4,300 (8.3%) were called active. The full list was thinned out, with actives kept by preference.
Entries are sorted into classes by survival as follows: low-valued: < 60%; mid-valued: ≥ 60% and < 80%; high-valued: ≥ 80%

- CCOc1ccc(OCC)c(S(=O)(=O)n2cnc3cc(C)c(C)cc32)c1: high-valued
- COc1ccc(-c2nc(CSCC(=O)N3CCN(c4cc(Cl)ccc4C)CC3)c(C)o2)cc1: low-valued
- COc1cccc(-c2nc(CS(=O)CC(=O)N3CCN(c4cccc(C(F)(F)F)c4)CC3)c(C)o2)c1 (centres undefined): low-valued
- Cc1cccc(CC(=O)Nc2c(C(=O)Nc3cccc(F)c3)oc3ccccc23)c1: low-valued
- Cn1nc(CC(=O)Nc2ccc(N3CCN(C(=O)OC(C)(C)C)CC3)cc2)c2ccccc2c1=O: high-valued

With those in mind, consider the next compound.
input: Entry COc1ccc(NC(=O)c2oc3ccccc3c2NC(=O)c2cc3ccccc3o2)c(OC)c1 belongs to which category?
output: mid-valued

---

System: DeltatarO mutant
Test: S. aureus survival, RN4220 and DeltatarO strains – OD600, teichoic acid synthesis inhibitors, primary screen (AID 463173)
Settings: S. aureus RN4220 wild type/DeltatarO growth, OD600, 18 h, hits give low values, screened at 18.75 µg/mL (by protocol)
The whole screen tested about 52,000 compounds, of which about 4,300 (8.3%) were called active. Shown is part of a subset that was picked to be rich in actives.
Please respond with Fulfilled when measured survival is strictly beneath 70%, and with Not fulfilled in all other cases.

- COc1ccc(CCNC(=O)c2ccc3c(c2)CCN3S(=O)(=O)c2ccccc2)cc1: Fulfilled

input: is_below(survival, 70%) for COc1ccc(CCNC(=O)c2ccc3c(c2)CCN3S(=O)(=O)c2ccccc2)cc1OC ?
output: Not fulfilled

input: is_below(survival, 70%) for O=C(NCCc1ccccc1)c1ccc2c(c1)CCN2S(=O)(=O)c1ccc(Br)cc1 ?
output: Fulfilled

input: is_below(survival, 70%) for COc1ccc(CNC(=O)c2ccc3c(c2)CCN3S(=O)(=O)c2ccccc2)cc1 ?
output: Fulfilled

input: is_below(survival, 70%) for Cc1cc(C)c(Cn2c3ccccc3c3cnn(CC(=O)NCCc4ccccc4)c(=O)c32)c(C)c1 ?
output: Not fulfilled

input: is_below(survival, 70%) for COc1ccc(CCNC(=O)c2ccc3c(c2)CCN3S(=O)(=O)c2ccc(C)cc2)cc1OC ?
output: Fulfilled

Values were extracted from PubChem BioAssay AID463173.
